Observed pIC50 for UniProt P08684, reported per entry below.
Sequence (P08684 whole entry): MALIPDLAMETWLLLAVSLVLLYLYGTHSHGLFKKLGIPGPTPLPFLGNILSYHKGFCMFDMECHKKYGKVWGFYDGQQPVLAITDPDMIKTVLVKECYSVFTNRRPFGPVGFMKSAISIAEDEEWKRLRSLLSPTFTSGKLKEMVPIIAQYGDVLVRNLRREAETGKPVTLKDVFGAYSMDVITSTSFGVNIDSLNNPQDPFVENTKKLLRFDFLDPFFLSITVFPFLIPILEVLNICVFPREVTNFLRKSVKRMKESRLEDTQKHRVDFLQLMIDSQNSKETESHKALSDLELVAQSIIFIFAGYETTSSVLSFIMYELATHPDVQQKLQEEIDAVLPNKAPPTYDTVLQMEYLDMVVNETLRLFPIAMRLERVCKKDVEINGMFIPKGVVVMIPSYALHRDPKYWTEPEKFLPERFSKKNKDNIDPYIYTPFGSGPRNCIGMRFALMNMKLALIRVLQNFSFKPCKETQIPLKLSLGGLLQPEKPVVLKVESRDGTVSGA
pIC50: −log10 of the molar value.

Guide cases for pIC50, answers given:
chemical_structure | pIC50
O=C(O)CCCOc1cccc(CCCCCCOc2cc(-c3ccccc3)cc(-c3ccccc3)n2)c1CCC(=O)O | < 5.12
O=C(O)CCCOc1cccc(CCCCCCOc2cc(-c3ccncc3)cc(-c3ccncc3)c2)c1CCC(=O)O | < 5.12

Next:
Task: Quick one: pIC50 for O=C(O)CCCOc1cccc(CCCCCCOc2cc(-c3ccccc3)cc(-c3ccccc3)c2)c1CCC(=O)O ?
Output: < 5.12

---

Below is a list of entries, each paired with its recorded clearance value.
assay: Clearance in Sprague-Dawley rat at 5 mg/kg, iv; type: ADME, organism-based; parameters: dose 5 mg/kg, route intravenous; conditions: in vivo
All answers are understood in mL/min/kg, so give the number only.

Guide cases for clearance, answers given:
chemical_structure | clearance, mL/min/kg
O=C(O)CCCOc1cccc(CCCCCCOc2cc(-c3ccncc3)cc(-c3ccncc3)c2)c1CCC(=O)O | 28.1
O=C(O)CCCOc1cccc(CCCCCCOc2cc(-c3ccsc3)cc(-c3ccc4c(c3)OCO4)c2)c1CCC(=O)O | 5.47

Next:
Task: Quick one: clearance for O=C(O)CCCOc1cccc(CCCCCCOc2cc(-c3cccc(F)c3)cc(-c3ccc4c(c3)OCO4)c2)c1CCC(=O)O ?
Output: 11.6

---

experiment: Clearance in Sprague-Dawley rat at 2.5 mg/kg, iv; type: ADME, organism-based; design: dose 2.5 mg/kg, route intravenous; details: in vivo
measurement_label: clearance (mL/min/kg)
All answers are understood in mL/min/kg, so give the number only.

Task: Quick one: clearance for O=C(O)CCCOc1cccc(CCCCCCOc2cc(-c3ccccc3)cc(-c3ccccc3)n2)c1CCC(=O)O ?
Output: 7.53

---

biological target: Cytochrome P450 2C9 (Homo sapiens, UniProt P11712); experiment: Inhibition of CYP2C9 fluorescence method; type: ADME
Sequence (P11712 whole entry): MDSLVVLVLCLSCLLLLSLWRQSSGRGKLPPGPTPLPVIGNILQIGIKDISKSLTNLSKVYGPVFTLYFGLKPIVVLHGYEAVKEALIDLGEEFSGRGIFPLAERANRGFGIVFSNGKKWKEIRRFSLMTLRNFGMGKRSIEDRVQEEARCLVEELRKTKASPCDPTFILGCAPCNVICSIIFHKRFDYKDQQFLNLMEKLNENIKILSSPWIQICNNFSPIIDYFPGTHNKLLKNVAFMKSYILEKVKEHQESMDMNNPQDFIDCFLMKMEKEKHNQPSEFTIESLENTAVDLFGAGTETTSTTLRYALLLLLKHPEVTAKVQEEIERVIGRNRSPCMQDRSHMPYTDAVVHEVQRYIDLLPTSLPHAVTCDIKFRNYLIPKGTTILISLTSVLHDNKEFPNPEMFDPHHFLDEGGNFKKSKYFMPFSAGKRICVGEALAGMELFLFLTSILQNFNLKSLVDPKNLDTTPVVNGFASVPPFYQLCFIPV
Below is a list of entries, each paired with its recorded IC50 value.

Guide cases for IC50, answers given:
chemical_structure | tested_target | measurement_label | result_value
O=C(O)CCCOc1cccc(CCCCCCOc2cc(-c3ccccc3)cc(-c3ccccc3)n2)c1CCC(=O)O | Cytochrome P450 2C9 (Homo sapiens, UniProt P11712) | IC50 | > 12.5 µM
O=C(O)CCCOc1cccc(CCCCCCOc2cc(-c3ccccc3)cc(-c3ccccc3)c2)c1CCC(=O)O | Cytochrome P450 2C9 (Homo sapiens, UniProt P11712) | IC50 | > 50 µM

Next:
Task: Quick one: IC50 for O=C(O)CCCOc1cccc(CCCCCCOc2cc(-c3cccc(F)c3)cc(-c3ccc4c(c3)OCO4)c2)c1CCC(=O)O ?
Output: > 25 µM

---

target: Leukotriene B4 receptor 1 (Homo sapiens, UniProt Q15722); assay: Antagonist activity at BLT1 receptor expressed in human HL60 cells assessed as inhibition of LTB4-stimulated calcium flux after 30 mins; format: functional, cell-based, HL-60; settings: read-out: IC50
Sequence (Q15722 whole entry): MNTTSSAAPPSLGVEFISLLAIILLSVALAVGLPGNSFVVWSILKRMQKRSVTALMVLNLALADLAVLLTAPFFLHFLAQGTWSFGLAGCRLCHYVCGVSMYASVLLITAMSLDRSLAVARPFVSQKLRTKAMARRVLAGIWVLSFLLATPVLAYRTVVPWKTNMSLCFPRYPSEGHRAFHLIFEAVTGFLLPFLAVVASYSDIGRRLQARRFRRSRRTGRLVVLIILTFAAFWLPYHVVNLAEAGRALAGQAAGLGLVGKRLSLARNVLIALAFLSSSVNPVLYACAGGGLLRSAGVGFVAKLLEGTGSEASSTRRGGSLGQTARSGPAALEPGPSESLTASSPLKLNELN
Response field label takes 1 (yes) when IC50 is strictly below 0.5 nM and 0 (no) in all other cases.

Observe how each entry below is paired with its result.
chemical_structure | classification
O=C(O)CCCOc1cccc(CCCCCCOc2cc(-c3cccc(F)c3)cc(-c3ccc4c(c3)OCO4)c2)c1CCC(=O)O | 0 (no)
O=C(O)CCCOc1cccc(CCCCCCOc2cc(-c3cccc(F)c3)cc(-c3ccc4[nH]ccc4c3)c2)c1CCC(=O)O | 0 (no)
O=C(O)CCCOc1cccc(CCCCCCOc2cc(-c3ccc4c(c3)OCCO4)cc(-c3ccc4c(c3)OCCO4)c2)c1CCC(=O)O | 0 (no)
O=C(O)CCCOc1cccc(CCCCCCOc2cc(-c3ccc4c(c3)OCO4)cc(-c3ccc4c(c3)OCO4)c2)c1CCC(=O)O | 0 (no)

Task: Lab note: confirm whether the reported IC50 for this molecule is below 0.5 nM, equality not counting. molecule: O=C(O)CCCOc1cccc(CCCCCCOc2cc(-c3ccc4c(c3)OCO4)cc(-c3ccccc3F)c2)c1CCC(=O)O
Output: 0 (no)

Task: Lab note: confirm whether the reported IC50 for this molecule is below 0.5 nM, equality not counting. molecule: O=C(O)CCCOc1cccc(CCCCCCOc2cc(-c3ccc(F)cc3)cc(-c3ccc(F)cc3)c2)c1CCC(=O)O
Output: 0 (no)

Task: Lab note: confirm whether the reported IC50 for this molecule is below 0.5 nM, equality not counting. molecule: O=C(O)CCCOc1cccc(CCCCCCOc2cc(-c3ccc(F)cc3)cc(-c3ccc4c(c3)OCCO4)c2)c1CCC(=O)O
Output: 0 (no)

Task: Lab note: confirm whether the reported IC50 for this molecule is below 0.5 nM, equality not counting. molecule: O=C(O)CCCOc1cccc(CCCCCCOc2cc(-c3ccsc3)cc(-c3ccnc(Cl)c3)c2)c1CCC(=O)O
Output: 0 (no)

Task: Lab note: confirm whether the reported IC50 for this molecule is below 0.5 nM, equality not counting. molecule: O=C(O)CCCOc1cccc(CCCCCCOc2cc(-c3ccccc3)cc(-c3ccsc3)c2)c1CCC(=O)O
Output: 1 (yes)

Task: Lab note: confirm whether the reported IC50 for this molecule is below 0.5 nM, equality not counting. molecule: O=C(O)CCCOc1cccc(CCCCCCOc2cc(-c3ccccc3)cc(-c3ccc4c(c3)OCO4)c2)c1CCC(=O)O
Output: 0 (no)

Task: Lab note: confirm whether the reported IC50 for this molecule is below 0.5 nM, equality not counting. molecule: O=C(O)CCCOc1cccc(CCCCCCOc2cc(-c3ccsc3)cc(-c3ccc4c(c3)OCO4)c2)c1CCC(=O)O
Output: 1 (yes)

Task: Lab note: confirm whether the reported IC50 for this molecule is below 0.5 nM, equality not counting. molecule: O=C(O)CCCOc1cccc(CCCCCCOc2cc(-c3ccncc3)cc(-c3ccncc3)c2)c1CCC(=O)O
Output: 1 (yes)

Task: Lab note: confirm whether the reported IC50 for this molecule is below 0.5 nM, equality not counting. molecule: O=C(O)CCCOc1cccc(CCCCCCOc2cc(-c3ccccc3)cc(-c3ccccc3)n2)c1CCC(=O)O
Output: 1 (yes)

Task: Lab note: confirm whether the reported IC50 for this molecule is below 0.5 nM, equality not counting. molecule: O=C(O)CCCOc1cccc(CCCCCCOc2cc(-c3ccccc3)cc(-c3ccccc3)c2)c1CCC(=O)O
Output: 1 (yes)

Task: Lab note: confirm whether the reported IC50 for this molecule is below 0.5 nM, equality not counting. molecule: O=C(O)CCCOc1cccc(CCCCCCOc2cc(-c3ccncc3)cc(-c3ccsc3)c2)c1CCC(=O)O
Output: 1 (yes)

Task: Lab note: confirm whether the reported IC50 for this molecule is below 0.5 nM, equality not counting. molecule: O=C(O)CCCOc1cccc(CCCCCCOc2cc(-c3ccsc3)cc(-c3ccsc3)c2)c1CCC(=O)O
Output: 0 (no)

Task: Lab note: confirm whether the reported IC50 for this molecule is below 0.5 nM, equality not counting. molecule: O=C(O)CCCOc1cccc(CCCCCCOc2cc(-c3cncnc3)cc(-c3cncnc3)c2)c1CCC(=O)O
Output: 0 (no)

Task: Lab note: confirm whether the reported IC50 for this molecule is below 0.5 nM, equality not counting. molecule: O=C(O)CCCOc1cccc(CCCCCCOc2cc(-c3ccncc3)cc(-c3cccc(F)c3)c2)c1CCC(=O)O
Output: 1 (yes)

Task: Lab note: confirm whether the reported IC50 for this molecule is below 0.5 nM, equality not counting. molecule: O=C(O)CCCOc1cccc(CCCCCCOc2cc(-c3cncnc3)cc(-c3ccsc3)c2)c1CCC(=O)O
Output: 1 (yes)

Taken from ChEMBL document CHEMBL1158546.
